# System: CCRIS mutagenicity, Ames/micronucleus/aberration tests
# ASSAY PROCEDURE: CCRIS mutagenicity studies
# CONDITION LABEL: Test System: AMES SALMONELLA TYPHIMURIUM; Strain/Indicator: TA100; Metabolic Activation: RAT, LIVER, S-9, AROCLOR 1254; Method: STANDARD PLATE
Calls of active or inactive are those of the source. How the calls were made is not given here.
The categories you may choose from are active, inactive

Prompt line: # outcome recorded in this test, key = CN1CCC[C@H]1c1cccnc1
Response line: inactive

Prompt line: Input Cc1c([N+](=O)[O-])c(C)c([N+](=O)[O-])c(C(C)(C)C)c1[N+](=O)[O-]
Response line: inactive

Prompt line: Input Cn1c([N+](=O)[O-])cnc1C1NC(CO)(CO)CO1 (configuration not stated)
Response line: active

Prompt line: Input O=S(=O)(O)NO
Response line: inactive

Prompt line: Input CC(C)CN(N)CC(C)C
Response line: active

Prompt line: Input Nc1ccc(Cl)c(N)c1
Response line: active

Prompt line: Input C/C=C\c1cc(OC)c(OC)cc1OC
Response line: inactive

* * *

# Tested on: CCRIS mutagenicity, Ames/micronucleus/aberration tests
# ASSAY PROCEDURE: CCRIS mutagenicity studies
# CONDITION LABEL: Test System: AMES SALMONELLA TYPHIMURIUM; Strain/Indicator: TA1535; Metabolic Activation: RAT, LIVER, S-9, AROCLOR 1254 (10 OR 30%); Method: PREINCUBATION
Active and inactive are the calls of the source. No rule for the calls is given here.
OBSERVABLE: mutagenic call

Prompt line: Given CCCCN(CC)CC , state its recorded mutagenic call.
Response line: inactive; negative

Prompt line: Input COC(=O)[C@H]1[C@H]2C[C@@H]3c4[nH]c5cc(OC)ccc5c4CCN3C[C@H]2C[C@@H](OC(=O)/C=C/c2cc(OC)c(OC)c(OC)c2)[C@@H]1OC
Response line: inactive; negative

Prompt line: Input CCCCCCC[CH2][Sn]([CH2]CCCCCCC)([S]CC(=O)OCCCCCC(C)C)[S]CC(=O)OCCCCCC(C)C
Response line: inactive; negative

Prompt line: Input Oc1ccc(Cl)c(Cl)c1Cl
Response line: inactive; negative

Prompt line: Input CCCCC(CC)COC(=O)c1ccc(C(=O)OCC(CC)CCCC)c(C(=O)OCC(CC)CCCC)c1 (stereo unspecified)
Response line: inactive; negative

Next:
Prompt line: Given O=S(=O)(O)c1cc(S(=O)(=O)O)c2c(N=Nc3ccccc3)c(O)ccc2c1 , state its recorded mutagenic call.
Response line: inactive; negative

Prompt line: Input C=C(CC)C(=O)c1ccc(OCC(=O)O)c(Cl)c1Cl
Response line: inactive; negative

Prompt line: Input c1ccc2c(c1)Oc1ccccc1S2
Response line: inactive; negative

Prompt line: Input CCCCCCCCCCCCCCCCCCCC
Response line: inactive; negative

Prompt line: Input CCN(Cc1ccccc1)c1ccccc1
Response line: inactive; negative

Prompt line: Input NC(=O)c1ccccc1O
Response line: inactive; negative

* * *

# System: CCRIS mutagenicity, Ames/micronucleus/aberration tests
# ASSAY PROCEDURE: CCRIS mutagenicity studies
# CONDITION LABEL: Test System: UDS RAT HEPATOCYTES; Strain/Indicator: THY INCORP; Metabolic Activation: NONE; Method: AUTORADIOGRAPHY
Activity calls are given as the source filed them. How the calls were made is not given here.
The categories you may choose from are active, inactive

Prompt line: # outcome recorded in this test, key = ClC(Cl)Br
Response line: inactive

Prompt line: Input Cc1ccc(N)cc1N
Response line: active

Prompt line: Input CCN(CC)c1ccc(N=Nc2c(Cl)cc([N+](=O)[O-])cc2Cl)cc1
Response line: inactive

Prompt line: Input CC(C)NCC(O)c1ccc(NS(C)(=O)=O)cc1 (configuration not stated)
Response line: inactive

Prompt line: Input Cc1cccc(Nc2cc(Cl)nc(SCC(=O)O)n2)c1C
Response line: inactive

Prompt line: Input Cc1cnc2ccc3c(nc(N)n3C)c2n1
Response line: inactive

Prompt line: Input CC(C)N(CC(O)c1ccc(NS(C)(=O)=O)cc1)N=O (configuration not stated)
Response line: active

Prompt line: Input CCN(CC)c1cc(NC(C)=O)c(N=Nc2ccc([N+](=O)[O-])cc2)cc1OC
Response line: inactive

Prompt line: Input CC(C)(C)NCC(O)COc1cccc2c1CC(O)C(O)C2 (configuration not stated)
Response line: inactive

Prompt line: Input CC1=C[C@]2(O[C@@H]3O[C@H](CO)[C@@H](O)[C@H](O)[C@H]3O)C[C@@H](C)C(=O)[C@@H]2[C@](C)(O)C12CC2
Response line: active

Prompt line: Input C[C-](C)[N+](=O)[O-]
Response line: active

Prompt line: Input NCCNC(=O)c1ccc(Cl)cn1
Response line: inactive

The reported numbers originate from PubChem BioAssay AID1259407.
